Just for reference, patent US20070275935A1 is where these values come from.

target: Estrogen Receptor (ER) (Rattus norvegicus, UniProt P06211); construct: using rat uterine cytosol as a source of ER; from tissue; host or cells: rat uterus, cytosol fraction (30000 x g supernatant); test: Estrogen receptor binding assay, 3H-estradiol displacement from rat uterine cytosol; conditions: 3H-estradiol displacement, cytosolic preparations of rat uterus; pIC50 of 4.00 = inactive; read-out: ER-RLB pIC50 (converted)
Sequence (P06211 whole entry): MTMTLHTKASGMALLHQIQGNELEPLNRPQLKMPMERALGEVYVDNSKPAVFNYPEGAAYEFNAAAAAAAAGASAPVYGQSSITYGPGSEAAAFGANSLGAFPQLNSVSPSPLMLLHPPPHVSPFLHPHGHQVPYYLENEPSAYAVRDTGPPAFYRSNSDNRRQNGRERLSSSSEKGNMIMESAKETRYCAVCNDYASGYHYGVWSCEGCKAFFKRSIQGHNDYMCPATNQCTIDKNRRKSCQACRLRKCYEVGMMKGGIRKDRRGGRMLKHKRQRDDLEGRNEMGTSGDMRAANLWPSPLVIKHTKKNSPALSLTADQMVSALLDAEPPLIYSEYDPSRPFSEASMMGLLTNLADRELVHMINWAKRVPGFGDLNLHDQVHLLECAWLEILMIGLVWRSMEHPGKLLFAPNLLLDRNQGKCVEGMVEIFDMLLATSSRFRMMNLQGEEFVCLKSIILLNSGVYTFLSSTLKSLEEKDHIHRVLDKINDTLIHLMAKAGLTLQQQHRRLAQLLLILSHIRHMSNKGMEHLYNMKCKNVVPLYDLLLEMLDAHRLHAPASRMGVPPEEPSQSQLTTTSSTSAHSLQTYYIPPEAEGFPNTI
The label y is reserved for IC50 strictly under 1000 nM; n covers values equal to or above it.

IN: Lab note: IC50 threshold 1000 nM. Does this compound come in strictly under it? `COc1ccc(CO/N=C2\CC[C@H]3[C@@H]4CCc5cc(O)ccc5[C@H]4CC[C@]23C)cc1`
OUT: y

IN: Lab note: IC50 threshold 1000 nM. Does this compound come in strictly under it? `COc1cc2c(cc1O)/C(=N/OCc1cccc([N+](=O)[O-])c1)C[C@@H]1[C@@H]2CC[C@]2(C)/C(=N/O)CC[C@@H]12`
OUT: n

IN: Lab note: IC50 threshold 1000 nM. Does this compound come in strictly under it? `COc1cc2c(cc1O)/C(=N/OCc1ccc(SC(F)(F)F)cc1)C[C@@H]1[C@@H]2CC[C@]2(C)[C@@H](O)CC[C@@H]12`
OUT: y

IN: Lab note: IC50 threshold 1000 nM. Does this compound come in strictly under it? `C[C@]12CC[C@@H]3c4ccc(O)cc4CC[C@H]3[C@@H]1CC/C2=N\OCc1ccc([N+](=O)[O-])cc1`
OUT: n

IN: Lab note: IC50 threshold 1000 nM. Does this compound come in strictly under it? `COc1cc2c(cc1O)/C(=N/OCc1cccc(C#N)c1)C[C@@H]1[C@@H]2CC[C@]2(C)/C(=N/O)CC[C@@H]12`
OUT: n

IN: Lab note: IC50 threshold 1000 nM. Does this compound come in strictly under it? `COc1cc2c(cc1O)/C(=N/OCc1cccc([N+](=O)[O-])c1)C[C@@H]1[C@@H]2CC[C@]2(C)[C@@H](O)CC[C@@H]12`
OUT: y

IN: Lab note: IC50 threshold 1000 nM. Does this compound come in strictly under it? `COc1cc2c(cc1O)/C(=N/OCc1ccc(C#N)cc1)C[C@@H]1[C@@H]2CC[C@]2(C)[C@@H](O)CC[C@@H]12`
OUT: n

IN: Lab note: IC50 threshold 1000 nM. Does this compound come in strictly under it? `COc1ccc(CO/N=C2\C[C@@H]3[C@H](CC[C@]4(C)/C(=N/O)CC[C@@H]34)c3cc(OC)c(O)cc32)cc1`
OUT: n

IN: Lab note: IC50 threshold 1000 nM. Does this compound come in strictly under it? `COc1cc2c(cc1O)/C(=N/OCc1ccc(C)cc1)C[C@@H]1[C@@H]2CC[C@]2(C)[C@@H](O)CC[C@@H]12`
OUT: y

IN: Lab note: IC50 threshold 1000 nM. Does this compound come in strictly under it? `C[C@]12CC[C@@H]3c4ccc(O)cc4CC[C@H]3[C@@H]1CC/C2=N\OCc1cccc([N+](=O)[O-])c1`
OUT: n

IN: Lab note: IC50 threshold 1000 nM. Does this compound come in strictly under it? `COc1cc2c(cc1O)/C(=N/OCc1cccc(C(F)(F)F)c1)C[C@@H]1[C@@H]2CC[C@]2(C)/C(=N/O)CC[C@@H]12`
OUT: n

IN: Lab note: IC50 threshold 1000 nM. Does this compound come in strictly under it? `COc1cc2c(cc1O)/C(=N/OCc1ccncc1)C[C@@H]1[C@@H]2CC[C@]2(C)/C(=N/O)CC[C@@H]12`
OUT: n

IN: Lab note: IC50 threshold 1000 nM. Does this compound come in strictly under it? `COc1cc2c(cc1O)/C(=N/OCc1cc(F)cc(F)c1)C[C@@H]1[C@@H]2CC[C@]2(C)[C@@H](O)CC[C@@H]12`
OUT: n

IN: Lab note: IC50 threshold 1000 nM. Does this compound come in strictly under it? `COc1ccc(CO/N=C2\C[C@@H]3[C@H](CC[C@]4(C)[C@@H](O)CC[C@@H]34)c3cc(OC)c(O)cc32)cc1`
OUT: y

IN: Lab note: IC50 threshold 1000 nM. Does this compound come in strictly under it? `COc1cc2c(cc1O)/C(=N/OCc1ccccc1[N+](=O)[O-])C[C@@H]1[C@@H]2CC[C@]2(C)[C@@H](O)CC[C@@H]12`
OUT: y

IN: Lab note: IC50 threshold 1000 nM. Does this compound come in strictly under it? `C#C[C@]1(O)CC[C@H]2[C@@H]3C/C(=N\OCc4ccc([N+](=O)[O-])cc4)c4cc(O)ccc4[C@H]3CC[C@@]21C`
OUT: n

IN: Lab note: IC50 threshold 1000 nM. Does this compound come in strictly under it? `COc1cc2c(cc1O)/C(=N/OCc1ccc(OC(F)(F)F)cc1)C[C@@H]1[C@@H]2CC[C@]2(C)[C@@H](O)CC[C@@H]12`
OUT: n

IN: Lab note: IC50 threshold 1000 nM. Does this compound come in strictly under it? `COc1cc2c(cc1O)/C(=N/OCc1cccc(OC(F)(F)F)c1)C[C@@H]1[C@@H]2CC[C@]2(C)[C@@H](O)CC[C@@H]12`
OUT: y

IN: Lab note: IC50 threshold 1000 nM. Does this compound come in strictly under it? COc1ccc(CON=C2CCC3C4CCc5cc(O)c(OC)cc5C4CCC23C)cc1 (stereo not shown)
OUT: n

IN: Lab note: IC50 threshold 1000 nM. Does this compound come in strictly under it? `COc1cc2c(cc1O)/C(=N/OCc1cc(F)cc(F)c1)C[C@@H]1[C@@H]2CC[C@]2(C)/C(=N/O)CC[C@@H]12`
OUT: n

IN: Lab note: IC50 threshold 1000 nM. Does this compound come in strictly under it? `COc1cc2c(cc1O)/C(=N/OCc1cccc(C#N)c1)C[C@@H]1[C@@H]2CC[C@]2(C)[C@@H](O)CC[C@@H]12`
OUT: y
